Source listed as patent US8592431B2.

target system: human PPARγ (Homo sapiens (Human), UniProt P37231)
Sequence (P37231 29-505): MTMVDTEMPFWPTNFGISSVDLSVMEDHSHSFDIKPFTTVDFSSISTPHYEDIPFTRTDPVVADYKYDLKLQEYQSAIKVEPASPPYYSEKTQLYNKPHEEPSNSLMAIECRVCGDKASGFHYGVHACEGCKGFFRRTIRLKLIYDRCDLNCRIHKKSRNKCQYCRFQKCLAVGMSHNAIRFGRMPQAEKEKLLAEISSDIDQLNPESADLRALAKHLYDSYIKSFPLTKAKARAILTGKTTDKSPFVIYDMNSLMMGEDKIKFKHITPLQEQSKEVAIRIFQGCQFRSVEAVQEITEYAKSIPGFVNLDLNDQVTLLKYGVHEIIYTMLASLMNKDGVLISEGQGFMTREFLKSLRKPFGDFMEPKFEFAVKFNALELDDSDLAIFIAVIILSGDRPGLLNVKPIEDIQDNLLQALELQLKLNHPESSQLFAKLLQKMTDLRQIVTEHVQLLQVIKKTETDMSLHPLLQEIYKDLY
Sequence (P19793 whole entry partner): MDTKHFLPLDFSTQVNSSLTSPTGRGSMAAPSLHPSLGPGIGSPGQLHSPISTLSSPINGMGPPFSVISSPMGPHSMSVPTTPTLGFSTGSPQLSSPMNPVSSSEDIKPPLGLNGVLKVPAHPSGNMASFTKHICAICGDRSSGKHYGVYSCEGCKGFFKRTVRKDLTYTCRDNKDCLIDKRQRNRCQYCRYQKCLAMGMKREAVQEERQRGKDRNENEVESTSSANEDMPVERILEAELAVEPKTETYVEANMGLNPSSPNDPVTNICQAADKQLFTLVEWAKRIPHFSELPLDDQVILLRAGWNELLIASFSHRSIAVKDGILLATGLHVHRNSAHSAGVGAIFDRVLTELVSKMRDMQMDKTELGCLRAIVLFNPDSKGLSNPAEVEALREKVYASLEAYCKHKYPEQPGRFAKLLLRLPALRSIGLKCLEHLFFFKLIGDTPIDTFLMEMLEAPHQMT
protocol summary: PPARγ agonistic activity: luciferase reporter assay in PPARγ:RXRα:4ERPP/CHO-K1 cells
Type: cell-based
reported conditions: test compound 10^−6 M; control compound X (1 μM) taken as 100%
measured parameter: PPARγ agonistic activity (activation % (10^−6 M)) (%)

Recorded results for 4 compounds are shown here.
CCCCc1c(Cc2ccc(-c3ccccc3-c3noc(=O)[nH]3)cc2)c(=O)n(C2CCOC(C)C2)c2ncnn12 (stereo not drawn) [Example 160] = 26
CCCc1c(Cc2ccc(-c3ccccc3-c3noc(=O)[nH]3)cc2)c(=O)n([C@H]2CC[C@H](OC(C)C(C)(C)O)CC2)c2ncnn12 (stereo partly drawn) [Example 300] = 16
CCCc1c(Cc2ccc(-c3ccccc3-c3noc(=O)[nH]3)cc2)c(=O)n([C@H]2CC[C@H](OC(C)C(C)(C)O)CC2)c2ncnn12 (single isomer, unassigned) [Example 319] = 16
CCCc1c(Cc2ccc(-c3ccccc3-c3noc(=O)[nH]3)cc2F)c(=O)n([C@H]2CC[C@H](OC(C)C(C)(C)O)CC2)c2ncnn12 (single isomer, unassigned) [Example 248] = 19

a. CCCCc1c(Cc2ccc(-c3ccccc3-c3noc(=O)[nH]3)cc2)c(=O)n(C2CCOC(C)C2)c2ncnn12 (stereo not drawn) [Example 161]
b. CCCc1c(Cc2ccc(-c3ccccc3-c3noc(=O)[nH]3)cc2)c(=O)n(C2CCC(OCC(C)O)CC2)c2ccnn12 (single isomer, unassigned) [Example 441]
Q: # return whichever of a and b has the smaller PPARγ agonistic activity (activation % (10^−6 M)) Mark your selection by writing its label.
A: b
(b: 19%, a: 47%)
